meta.source: PubChem BioAssay AID1851

System name: Cytochrome P450 2D6 (Homo sapiens)
Assay protocol: Cytochrome panel assay with activity outcomes
Condition info: recombinant CYP, pro-luciferin dealkylation, luminescence, p450-cyp2d6; series mostly up to 57.1 µM
In all, about 16,000 compounds went through this assay and about 2,600 (16%) were called active. Another 20% or so got no clear call; they are omitted. Only a sample is shown.
Measurement label: AC50

Please review the following examples before continuing.
COc1ccc(C2CC(C(F)(F)F)n3nc(C(=O)N(C)Cc4cn(C)nc4C)c(Cl)c3N2)cc1 (stereo unspecified) : inactive
O=C(c1cnccn1)N1CCC2(CC1)CCN(c1ccccc1)CC2 : inactive
O=C(Nc1ccccc1)N1CC[C@@]2(CCCN(C(=O)c3cnccn3)C2)C1 : inactive
COc1ccc2[nH]cc(CCNc3ncncc3-c3ccccc3C)c2c1 : 1.26 µM (active)
CC(=O)NCCNc1cc(-c2ccccc2C(F)(F)F)ncn1 : inactive
Cc1ccc(S(=O)(=O)/N=C(/Nc2c(C)n(C)n(-c3ccccc3)c2=O)c2ccc(Cl)cc2)cc1 : inactive
COC(=O)c1ccc(C(=O)OC)c(NC(=S)N2CCN(c3ccccc3)CC2)c1 : inactive
CCOC(=O)CSc1cc(CS(=O)c2ccc(Cl)cc2)nc(-c2ccccc2)n1 (stereo unspecified) : 14.1 µM (active)
O=C(c1cnccn1)N1CCC[C@@]2(CCN(C(c3ccccc3)c3ccccc3)C2)C1 : 10 µM (active)
CN1CCN(c2ncnc3ccc(-c4cccc(NS(C)(=O)=O)c4)cc23)CC1 : inactive

Fill in AC50 for each of the 7 compounds listed.
1. CCS(=O)(=O)c1ccc2c(c1)N(S(C)(=O)=O)CC(C(=O)NCCOC)O2 (stereo unspecified)
2. CC(=O)C1=NOC(CNC(=O)c2c(-c3ccccc3Cl)noc2C)C1 (stereo unspecified)
3. CCn1c(-c2ccccc2Cl)nn(CC(=O)Nc2ccc(OC)cc2)c1=S
4. CC1=C(C(=O)Nc2cccnc2)C(c2cccnc2)n2nc(-c3cccs3)nc2N1 (stereo unspecified)
5. CN1CCN(c2ncncc2-c2ccc(C(=O)N(C)C)cc2)CC1
6. COc1ccc(-n2c(-c3ccccc3)nc(=S)c3c2CCCC3)cc1
7. Cc1cc2c(cc1S(N)(=O)=O)S(=O)(=O)CCC2

Reply:
1: inactive; 2: inactive; 3: inactive; 4: inactive; 5: 0.251 µM (active); 6: inactive; 7: inactive

###

System name: Cytochrome P450 2D6 (Homo sapiens) (UniProt P10635)
Sequence (P10635 whole entry, looked up): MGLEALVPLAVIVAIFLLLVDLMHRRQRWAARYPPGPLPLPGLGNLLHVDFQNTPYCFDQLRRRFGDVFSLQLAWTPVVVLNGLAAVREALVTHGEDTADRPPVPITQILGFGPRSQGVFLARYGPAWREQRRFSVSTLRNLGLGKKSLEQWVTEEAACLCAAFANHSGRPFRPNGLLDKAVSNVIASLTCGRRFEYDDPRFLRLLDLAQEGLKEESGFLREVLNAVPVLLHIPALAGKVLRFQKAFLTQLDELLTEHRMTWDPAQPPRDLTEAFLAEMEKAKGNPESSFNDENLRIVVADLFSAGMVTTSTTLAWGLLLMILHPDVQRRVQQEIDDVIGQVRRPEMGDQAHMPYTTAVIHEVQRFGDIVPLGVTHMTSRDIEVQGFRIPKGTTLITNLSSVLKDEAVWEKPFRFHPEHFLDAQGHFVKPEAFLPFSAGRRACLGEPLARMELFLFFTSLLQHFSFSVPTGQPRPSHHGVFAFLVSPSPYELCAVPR
Assay protocol: Cytochrome panel assay with activity outcomes
Condition info: recombinant CYP, pro-luciferin dealkylation, luminescence, p450-cyp2d6; series mostly up to 57.1 µM
Hit rate of the full screen: of about 16,000 compounds, about 2,600 (16%) were called active. About 20% were inconclusive and are not listed. The list is a sample of the results.
Measurement label: AC50

COc1ccc2cc3[n+](cc2c1OC)CCc1cc2c(cc1-3)OCO2 : 2.51 µM (active)
COc1ccc(-c2nc3cnc(N4CCN(C)CC4)nc3n(C3CC3)c2=O)cc1 : inactive
CC(=O)Nc1ccc(S(=O)(=O)NCC2CCC(C(=O)N3CCN(c4ccccn4)CC3)CC2)cc1 (stereo not drawn) : inactive
CCCn1c(/C=C/c2ccccc2)nc2ccccc21 : 8.91 µM (active)

Fill in AC50 for each of the 6 molecules listed.
1. CCn1c(-c2nonc2NC(=O)c2ccccc2)nc2ccccc21
2. Cc1nc(NS(=O)(=O)c2ccc(Br)cc2)c2c3c(sc2n1)CCC3
3. CC(=O)N(C)c1nnc(-c2cnccn2)s1
4. CCOc1cc(NC(=S)Nc2ccccc2)c(OCC)cc1NC(=O)c1ccc(OC)cc1
5. COCCn1c(=O)c(-c2ccc(F)cc2)nc2cncnc21
6. Cc1nn2c([nH]c(=O)c3ccccc32)c1C=O

Reply:
["inactive", "inactive", "inactive", "inactive", "inactive", "inactive"]

Fill in AC50 for each of the 6 molecules listed.
1. CCN(CC)S(=O)(=O)c1ccc(NC(=O)COC(=O)c2ccc(Br)o2)cc1
2. O=C(Cc1ccccc1)Nc1ccccc1N1CCOCC1
3. CC(C)Oc1ccc(C(=O)Nc2ccc(NC(=O)c3ccco3)c(Cl)c2)cc1
4. CN(Cc1ccccc1)C(=O)CC(c1ccccc1)c1cc(Cl)ccc1O (stereo not drawn)
5. CON1C(=O)C(=O)N(OC)C(C)(C)C1C (stereo not drawn)
6. COC(=O)C(NC(=O)c1ccccc1)=C1C=C(C)OC(C)=C1

Reply:
1: 3.16 µM (active); 2: inactive; 3: inactive; 4: 8.91 µM (active); 5: inactive; 6: inactive

Fill in AC50 for each of the 2 molecules listed.
1. O=C(Nc1ccc(Cl)cc1C(F)(F)F)c1ccc(Cl)cc1
2. COc1c(N2CCN(C(=S)Nc3ccc(F)cc3)C(C)C2)c(F)cc2c(=O)c(C(=O)O)cn(C3CC3)c12 (stereo not drawn)

Reply:
0.282 µM (active)
inactive
